Assay: pKa evaluation in aqueous solution
Format: physicochemical
Settings: read-out: pKa

compound | pKa
Cc1nc2cccc[n+]2c(C)c1[O-] [Compound 6, 2-aminopyridine Derivative] | 4

====

Molecular target: wild-type CFTR receptor (CHO-WT cells) (Homo sapiens)
Sequence (P13569 whole entry): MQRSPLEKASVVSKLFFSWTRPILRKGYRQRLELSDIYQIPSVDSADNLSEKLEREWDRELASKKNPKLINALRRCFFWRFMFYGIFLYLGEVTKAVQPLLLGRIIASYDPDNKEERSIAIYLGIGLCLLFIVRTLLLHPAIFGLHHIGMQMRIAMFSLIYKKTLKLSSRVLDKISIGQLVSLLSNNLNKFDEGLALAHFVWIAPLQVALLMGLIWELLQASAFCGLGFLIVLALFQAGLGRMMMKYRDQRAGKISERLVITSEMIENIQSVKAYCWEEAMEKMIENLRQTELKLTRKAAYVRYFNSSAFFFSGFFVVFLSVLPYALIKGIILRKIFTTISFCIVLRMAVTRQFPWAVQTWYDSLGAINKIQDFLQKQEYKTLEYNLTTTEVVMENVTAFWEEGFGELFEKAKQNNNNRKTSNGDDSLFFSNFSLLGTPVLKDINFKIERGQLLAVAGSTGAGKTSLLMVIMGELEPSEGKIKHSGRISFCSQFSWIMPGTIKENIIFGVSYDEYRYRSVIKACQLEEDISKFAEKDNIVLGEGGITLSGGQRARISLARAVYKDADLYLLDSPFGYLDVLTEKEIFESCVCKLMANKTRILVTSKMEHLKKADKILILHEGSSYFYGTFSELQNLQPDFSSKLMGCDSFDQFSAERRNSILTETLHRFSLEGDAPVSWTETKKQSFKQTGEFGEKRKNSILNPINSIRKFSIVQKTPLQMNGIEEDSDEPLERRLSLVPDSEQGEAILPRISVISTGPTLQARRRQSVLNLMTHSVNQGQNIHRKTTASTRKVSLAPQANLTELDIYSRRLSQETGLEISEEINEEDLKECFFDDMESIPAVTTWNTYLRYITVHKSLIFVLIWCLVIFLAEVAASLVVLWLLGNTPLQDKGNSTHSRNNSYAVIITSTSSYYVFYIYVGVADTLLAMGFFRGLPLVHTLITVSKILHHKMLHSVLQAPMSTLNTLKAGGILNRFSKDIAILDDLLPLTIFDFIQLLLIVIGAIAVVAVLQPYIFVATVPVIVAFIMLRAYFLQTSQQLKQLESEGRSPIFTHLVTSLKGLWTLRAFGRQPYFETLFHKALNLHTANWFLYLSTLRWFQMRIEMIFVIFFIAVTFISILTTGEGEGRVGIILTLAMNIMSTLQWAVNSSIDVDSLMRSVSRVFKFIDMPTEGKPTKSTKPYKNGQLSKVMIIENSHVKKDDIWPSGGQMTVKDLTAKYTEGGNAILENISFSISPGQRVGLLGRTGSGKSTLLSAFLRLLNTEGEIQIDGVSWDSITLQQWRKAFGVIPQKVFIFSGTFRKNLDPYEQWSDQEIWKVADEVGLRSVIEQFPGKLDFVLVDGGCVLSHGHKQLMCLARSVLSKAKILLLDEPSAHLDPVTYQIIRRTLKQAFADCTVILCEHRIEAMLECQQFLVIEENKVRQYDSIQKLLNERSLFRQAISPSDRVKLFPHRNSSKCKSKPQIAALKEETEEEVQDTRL
Experiment: 125I iodide efflux, CHO cells overexpressing wild-type CFTR (CHO-WT)
Conditions: 5 μM Fsk
pIC50: −log10 of the molar value.
parameter.measured: pIC50

compound | parameter.measured | reading
C[n+]1cn([C@@H]2O[C@H](CO)[C@@H](O)[C@H]2O)c2nc(N)nc([O-])c21 | pIC50 | 5.46
CCC1(C(=O)O)N=C2C=CC=CN2C(O)(CC)C1O (mixture of isomers) | pIC50 | 4.74
CC1(C(=O)O)N=C2C(O)=CC=CN2C(C)(O)C1O (mixture of isomers) [Compound 3, 2-amino-3-hydroxypyridine Adducts] | pIC50 | 5.40
CCCN1C=CC2=NC(C)(C(=O)O)C(O)C(C)(O)N2C1=O (stereo not shown) | pIC50 | 8.70
Cc1nc2cccc[n+]2c(C)c1[O-] | pIC50 | 8.30
CC1(C(=O)O)N=C2c3nc[nH]c3N=CN2C(C)(O)C1O (stereo not shown) | pIC50 | 5.22
CCCN1C=CC2=N[C@](C)(C(=O)O)[C@H](O)[C@@](C)(O)N2C1=O | pIC50 | 8.82
C[C@]1(C(=O)O)N=C2c3nc[nH]c3N=CN2[C@](C)(O)[C@H]1O (single isomer, unassigned) [Compound 5a] | pIC50 | 5.00
C[N+](C)(C)CC(=O)O [Betaine, reference compound] | pIC50 | 4.02
CCCN1C=CC2=N[C@](C)(C(=O)O)[C@@H](O)[C@@](C)(O)N2C1=O | pIC50 | 8.70
C[C@]1(C(=O)O)N=C2c3nc[nH]c3N=CN2[C@](C)(O)[C@H]1O (single isomer, unassigned) [Compound 5b] | pIC50 | 5.52
CC1(C(=O)O)N=C2c3ncn([C@H]4CC(O)[C@@H](CO)O4)c3N=CN2C(C)(O)C1O (stereo in doubt) | pIC50 | 10.15
Cc1nc2cccc[n+]2c(C)c1O [6 (chlorhydrate)] | pIC50 | 8.15

====

Experiment: pKa evaluation in aqueous solution
Type: physicochemical
Settings: aqueous solution, aqueous solution at 25° C.; read-out: pKa, imine function
parameter.measured: pKa

compound | parameter.measured | reading
CC1(C(=O)O)N=C2C=CC=CN2C(C)(O)C1O (stereo not shown) | pKa | ~10
